# System: DeltatarO mutant
# assay: S. aureus survival, RN4220 and DeltatarO strains – OD600, teichoic acid synthesis inhibitors, primary screen (AID 463173)
# condition_details: S. aureus RN4220 wild type/DeltatarO growth, OD600, 18 h, stronger effect = lower value, screened at 18.75 µg/mL (by protocol)
The whole screen tested about 52,000 compounds, of which about 4,300 (8.3%) were called active. This is one part of a sample in which actives are shown more often than they occur.
measurement_kind: survival

Example results:
CCc1ccc(CNc2nc3nc(C)c(Cc4ccccc4)c(=O)n3[nH]2)cc1    80% (inactive)
Cc1ccc2c(c1)cc1c(=O)n(CC(=O)NCc3ccco3)nc(C)n12    84% (inactive)
CCCCCn1c(=O)[nH]c2cc(C(=O)N3CCN(c4cccc(Cl)c4)CC3)ccc2c1=O    71% (inactive)

Entry Cc1cc2c(cc3c(SCC(=O)Nc4ccc(Cl)cc4F)nncn32)o1 needs its survival filled in; supply it.
36% (active)

Could you please provide reported survival for Cc1nc2nc(NCc3ccc(Cl)cc3)[nH]n2c(=O)c1Cc1ccccc1 ? Thanks!
40% (active)

----------
survival values for the molecules below.
# System: DeltatarO mutant
# assay: S. aureus survival, RN4220 and DeltatarO strains – OD600, teichoic acid synthesis inhibitors, primary screen (AID 463173)
# condition_details: S. aureus RN4220 wild type/DeltatarO growth, OD600, 18 h, stronger effect = lower value, screened at 18.75 µg/mL (by protocol)
The whole screen tested about 52,000 compounds, of which about 4,300 (8.3%) were called active. Shown is part of a subset that was picked to be rich in actives.
Return type: number; implicit unit %.

Record excerpt, results attached:
COc1cc(OC)c(Nc2nc3ccccc3nc2-n2nc(C)cc2C)cc1Cl    97
Cc1cc(C)n(-c2nc3ccccc3nc2Nc2cccc(C(F)(F)F)c2)n1    75
Cc1ccc(NC(=O)Cn2c(-c3cncs3)nc3ccccc32)c(Br)c1    63

Find the measured survival of COc1ccc(CNC(=O)CN(c2cc(C)cc(C)c2)S(=O)(=O)c2c(C)[nH]c(=O)[nH]c2=O)cc1 and report it.
86

Name the recorded survival of the molecule listed here: Cc1cc(C)cc(Nc2nc3cc(Cl)c(Cl)cc3nc2-n2nc(C)cc2C)c1
89

Provide one value: measured survival of CCCOc1cccc(C(=O)Nc2cc(-c3nc4ccccc4[nH]3)ccc2C)c1
56

Please supply the value of reported survival for the item O=C(NC1CC(=O)N(c2ccc(Cl)cc2)C1)c1cccs1 (configuration not stated)
71

Please report survival for the following molecule: Cc1cc(C)n(-c2nc3ccccc3nc2Nc2ccc(Cl)cc2Cl)n1
75

Report measured survival; entry is Cc1ccc(CNC(=O)c2ccc(-c3nc(CN4CCc5ccccc54)c(C)o3)cc2)cc1
84

Let me know recorded survival for CCOc1ccc(S(=O)(=O)NCC(c2ccc(N(C)C)cc2)N2CCCC2)cc1 (configuration not stated) , thanks.
107

Tell us which survival value is on record for Cc1cc(C)cc(C(=O)Nc2ccc(-c3nc4ncccc4o3)cc2)c1
56

Query survival for CCSc1nc2c([nH]c3ccccc32)c(=O)n1CC
68

Give the reported value of survival for this record: COc1cc(OC)cc(C(=O)Nc2cc(-c3nc4ccccc4[nH]3)ccc2C)c1
44

Identify measured survival corresponding to Cn1c(CNc2nc(-c3ccccc3)cs2)nnc1SCC(=O)OC1CCCCC1
73

Specify reported survival for the molecule shown: CCOc1ccc(S(=O)(=O)NCCc2csc(-c3ccc(Cl)cc3)n2)cc1
91

Note down survival recorded for O=C1c2ccccc2-c2onc3c(Br)cc(NC4CCCCC4)c1c23
101

Answer with the recorded survival of CCNc1cc(N2CCN(C3CCCCC3)CC2)c2noc3c2c1C(=O)c1ccccc1-3 only.
73

For Cc1cc(C)n(-c2nc3ccccc3nc2Nc2cccc(C)c2C)n1 , write its survival.
21

Give the reported value of survival for this record: CCN(CC)c1cc(NC2CCCCC2)c2c3c(onc13)-c1ccccc1C2=O
1
